System: P. falciparum Dd2-HLH
PROCEDURE SUMMARY: microbe, parasite or virus in culture
Assay type: cell-based, Plasmodium falciparum
MEASUREMENT CONTEXT: P. falciparum blood-stage parasites, 72 hours in culture; read-out: Blood stage 72h EC50
Counter-ions that a name gives are not always drawn.
In this section we review reported EC50 values for a set of compounds.
Your answer is read as nM, so omit the unit and give the number.

CCN(CC)CCN1C(=O)c2c(c3c4cccc(Cl)c4n([C@@H]4O[C@H](CO)[C@@H](OC)[C@H](O)[C@H]4O)c3c3[nH]c4c(Cl)cccc4c23)C1=O [Becatecarin] : 194
CN(C)CCNc1nc2cc(O)ccc2c2c1C(=O)c1ccccc1-2 [TAS-103] : 756
Cc1cc(-c2cc(OC(=O)c3ccccc3)ccc2Cl)cc2nnc(Nc3ccc(OCCN4CCCC4)cc3)nc12 [TG-100801] : 205

Value wanted: EC50 (P. falciparum Dd2-HLH) of entry NC(=O)[C@@H](CC1CC1)[C@@H](CCC(F)(F)F)C(=O)N[C@H]1N=C(c2ccccc2)c2cccc(F)c2NC1=O [BMS-983970]
84

Repeat with Cc1cc(-c2cc(O)ccc2Cl)cc2nnc(Nc3ccc(OCCN4CCCC4)cc3)nc12 [TG 100572 (Hydrochloride)]
589

Repeat with CCC(CC)Nc1cc(C)nc(Oc2c(C)cc(C)cc2C)c1C [CP-376395]
884

====

PROCEDURE SUMMARY: in vitro
MEASUREMENT CONTEXT: human
Structures can show the parent of a compound that is named as a salt. Numbered stars: 1 amine (or outer) side, 2 acyl side, 3 side chain; on linkers, the order of the positions; unused ones are H or OH. Bridge positions count the residues as written; N and C are the ends. Square brackets hold non-standard residues; d marks the D form. Peptide text beside a SMILES is read from it. I, II: the chains in the order shown. Actinocin(9to1) = Cc1c2oc3c(C)ccc(C(=O)[*:1])c3nc-2c(C(=O)[*:2])c(N)c1=O; NMeV = CN[C@H](C(=O)O)C(C)C; Sar = CNCC(=O)O
READOUT NAME: CC50 (nM)
Your answer is read as nM, so omit the unit and give the number.

Would you please look over these solved cases?
COC(=O)C[C@](O)(CCCC(C)(C)O)C(=O)O[C@@H]1C(OC)=C[C@]23CCCN2CCc2cc4c(cc2[C@H]13)OCO4 [Homoharringtonine, reference compound] : 32
Cc1cc2c(C(N)=O)cccc2n1-c1nc2c(c(NCc3ccccc3)n1)COCC2 [CB-5083] : 469
CS[C@H]1SC[C@H]2C(=O)N(C)[C@@H](C(C)C)C(=O)OC[C@@H](NC(=O)c3cnc4ccccc4n3)C(=O)N[C@@H](C)C(=O)N(C)[C@@H]1C(=O)N(C)[C@@H](C(C)C)C(=O)OC[C@@H](NC(=O)c1cnc3ccccc3n1)C(=O)N[C@@H](C)C(=O)N2C [Echinomycin] : 1
CC[C@@]1(O)C[C@H](O[C@H]2C[C@H](N(C)C)[C@H](O[C@H]3C[C@H](O)[C@H](O[C@H]4CCC(=O)[C@H](C)O4)[C@H](C)O3)[C@H](C)O2)c2c(cc3c(c2O)C(=O)c2c(O)cccc2C3=O)[C@H]1C(=O)OC [Aclarubicin] : 166
CO[C@H]1/C=C\C=C(/C)C(=O)NC2=CC(=O)C(NCCN(C)C)=C(C[C@@H](C)C[C@H](OC)[C@H](O)[C@@H](C)/C=C(\C)[C@@H]1OC(N)=O)C2=O [Alvespimycin hydrochloride] : 164
C[C@@H]1C[C@@H]([C@H](O)CC2CC(=O)NC(=O)C2)C(=O)[C@@H](C)C1 [Cycloheximide] : 759
COc1cccc2c1C(=O)c1c(O)c3c(c(O)c1C2=O)C[C@@](O)(C(=O)CO)C[C@@H]3O[C@H]1C[C@H](N2CCO[C@H](OC)C2)[C@H](O)[C@H](C)O1 [Nemorubicin, reference compound] : 5
CC(=O)[C@]1(O)Cc2c(O)c3c(c(O)c2[C@@H](O[C@H]2C[C@H](N)[C@H](O)[C@H](C)O2)C1)C(=O)c1ccccc1C3=O [Idarubicin] : 36

# evaluate next
I am curious: what CC50 value has been reported for Cc1c2oc3c(C)ccc(C(=O)N[C@@H]4C(=O)N[C@H](C(C)C)C(=O)N5CCC[C@H]5C(=O)N(C)CC(=O)N(C)[C@@H](C(C)C)C(=O)O[C@@H]4C)c3nc-2c(C(=O)N[C@@H]2C(=O)N[C@H](C(C)C)C(=O)N3CCC[C@H]3C(=O)N(C)CC(=O)N(C)[C@@H](C(C)C)C(=O)O[C@@H]2C)c(N)c1=O [Dactinomycin, reference compound] (I: T[dV]P[Sar][NMeV] / II: T[dV]P[Sar][NMeV]; ester I:1-I:C, II:1-II:C; linker I:N-II:N via Actinocin(9to1)) ?
9
